Every entry's value here was drawn from patent US9878986B2.

Record form. Attribute: IC50. Fill in for each entry.
Biological target: HDAC 6 (Homo sapiens, UniProt Q9UBN7)
Sequence (Q9UBN7 whole entry): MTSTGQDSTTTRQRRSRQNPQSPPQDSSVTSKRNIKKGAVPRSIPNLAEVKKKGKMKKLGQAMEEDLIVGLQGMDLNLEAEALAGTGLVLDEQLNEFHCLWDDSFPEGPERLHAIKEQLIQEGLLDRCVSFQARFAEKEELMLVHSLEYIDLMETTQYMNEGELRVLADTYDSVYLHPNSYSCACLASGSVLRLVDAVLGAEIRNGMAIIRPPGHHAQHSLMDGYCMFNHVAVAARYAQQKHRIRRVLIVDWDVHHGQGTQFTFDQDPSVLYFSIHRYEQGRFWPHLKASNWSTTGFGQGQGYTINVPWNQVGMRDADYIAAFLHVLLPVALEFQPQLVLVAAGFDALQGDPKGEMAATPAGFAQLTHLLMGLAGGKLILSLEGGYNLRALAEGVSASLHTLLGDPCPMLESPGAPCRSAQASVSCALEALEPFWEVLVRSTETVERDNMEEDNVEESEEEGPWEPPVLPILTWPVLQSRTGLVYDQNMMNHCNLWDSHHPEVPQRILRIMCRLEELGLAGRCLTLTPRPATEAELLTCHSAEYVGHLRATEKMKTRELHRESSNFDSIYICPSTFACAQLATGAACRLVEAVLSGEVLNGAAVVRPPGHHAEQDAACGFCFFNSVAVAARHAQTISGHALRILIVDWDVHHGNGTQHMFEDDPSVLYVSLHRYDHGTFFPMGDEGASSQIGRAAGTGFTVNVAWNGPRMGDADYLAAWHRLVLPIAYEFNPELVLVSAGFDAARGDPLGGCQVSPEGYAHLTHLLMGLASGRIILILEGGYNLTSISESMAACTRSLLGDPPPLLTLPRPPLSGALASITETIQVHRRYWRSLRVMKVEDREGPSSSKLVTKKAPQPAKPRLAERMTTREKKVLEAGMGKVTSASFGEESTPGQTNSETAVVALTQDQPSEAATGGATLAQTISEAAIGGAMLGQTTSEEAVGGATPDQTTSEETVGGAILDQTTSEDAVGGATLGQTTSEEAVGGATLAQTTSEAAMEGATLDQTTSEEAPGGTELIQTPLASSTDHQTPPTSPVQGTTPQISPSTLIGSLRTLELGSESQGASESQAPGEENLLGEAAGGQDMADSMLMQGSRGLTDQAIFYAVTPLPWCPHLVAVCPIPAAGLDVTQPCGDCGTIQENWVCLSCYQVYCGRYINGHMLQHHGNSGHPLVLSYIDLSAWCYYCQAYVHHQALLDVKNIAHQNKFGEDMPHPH
Assay: Test of HDAC activities, HDAC6 (fluorimetric)
Assay type: biochemical
Parameters: purchased Calbiochem 382180
Details: samples at 0.1, 1, 10, 100, 1000 nM; 37° C. 60 minutes; fluorescence Ex 390, Em 460; read-out: HDAC inhibitory activities, HDAC6
Lab book: enter the figure in nM, no units written.

(Q) What IC50 appears in the records for this molecule with HDAC 6 (Homo sapiens, UniProt Q9UBN7)? CC(=O)N1CCCN(C(=O)N(Cc2ccc(C(=O)NO)cc2)c2ccccn2)CC1 [Compound 450]
(A) 5

(Q) Next record, please: CC1CCN(C(=O)N(Cc2ccc(C(=O)NO)cc2)c2ccc(F)c(Cl)c2)CC1 [Compound 457]
(A) 5

(Q) Next record, please: O=C(NO)c1ccc(CN(C(=O)N2CCOCC2)c2cccc(-c3cc(F)cc(F)c3)c2)cc1 [Compound 395]
(A) 5

----------
Record form. Attribute: IC50. Fill in for each entry.
Biological target: UniProtKB Q9UBN7
Test: Test of HDAC activities, HDAC6 (fluorimetric)
Type: biochemical
Parameters: purchased Calbiochem 382180
Conditions: samples at 0.1, 1, 10, 100, 1000 nM; 37° C. 60 minutes; fluorescence Ex 390, Em 460; read-out: HDAC inhibitory activities, HDAC6
// unit must come after the numeric part

(Q) Using the record for `O=C(NO)c1ccc(CN(C(=O)N2CCC(O)CC2)c2cccc(-c3ccc4c(c3)OCO4)c2)c(F)c1` , report its IC50.
(A) 15 nM

(Q) Next record, please: `O=C(NO)c1ccc(CN(C(=O)N2CC=C(c3ccccc3)CC2)c2ccccn2)cc1`
(A) 7 nM

(Q) Next record, please: `O=C(NO)c1ccc(CN(C(=O)N2CCN(C(=O)C3CC3)CC2)c2ccccn2)cc1`
(A) 5 nM

(Q) Next record, please: `O=C(NO)c1ccc(CN(C(=O)N2CCOCC2)c2cccc(C3CCOCC3)c2)cc1`
(A) 7 nM

(Q) Next record, please: CC1CN(C(=O)N(Cc2ccc(C(=O)NO)cc2)c2ccc(Cl)c(C(F)(F)F)c2)CC(C)O1 (centres unmarked)
(A) 5 nM
